# Tested on: OVCAR-5
# MEASUREMENT_DESCRIPTION: NCI tumour cell line growth inhibition, 48 h
Active and inactive are the calls of the source. No stated cut-off is given here; in the data, active = GI50 up to about 1.1 µM and inactive = higher.
Select the matching outcome among active, inactive

Exercise: Could you check what this test reported for N=C1N(S(=O)(=O)c2ccccc2)[C@@H](Cc2ccccc2)[C@H](c2ccccc2)C1(c1ccccc1)c1ccccc1 ?
Solution: inactive

Exercise: Could you check what this test reported for CCCCNC(=O)c1cc(S(=O)(=O)n2ccnc2O)c(SC)cc1Cl ?
Solution: inactive

Exercise: Could you check what this test reported for CCCC1C2=C(C(=O)OC2=O)C2C(CC)CC3=C(C(=O)OC3=O)C12 (stereo unspecified) ?
Solution: inactive

Exercise: Could you check what this test reported for CC1=NN(c2cccc(Cl)c2)C2(SCC(=O)N2c2nc3ccccc3s2)C1=CC=Cc1ccccc1 (stereo unspecified) ?
Solution: inactive

Exercise: Could you check what this test reported for Nc1ccc2nc(NCc3ccc(F)cc3)cnc2c1 ?
Solution: inactive

Exercise: Could you check what this test reported for O=C(COC(=O)c1ccccc1)c1ccc(Br)cc1 ?
Solution: inactive

Exercise: Could you check what this test reported for Cc1cc2c(c(C(=O)O)c1C)-c1cccc(F)c1C2=O ?
Solution: inactive

Exercise: Could you check what this test reported for Cc1cc2c(cc1-c1cc3c(cc1C)C(C(C)C)=C(O)C(=O)/C3=C\Nc1nc(-c3ccccc3)cs1)/C(=C/Nc1nc(-c3ccccc3)cs1)C(=O)C(O)=C2C(C)C ?
Solution: inactive

Exercise: Could you check what this test reported for Cc1c2c(OCCN3CCCCC3)nn(C)c(=O)c2c(C)n1-c1ccccc1 ?
Solution: inactive

Exercise: Could you check what this test reported for COc1ccc(C2NC(=S)Nc3c2c(=O)oc2c3ccc3ccccc32)cc1 (stereo unspecified) ?
Solution: inactive

Exercise: Could you check what this test reported for O=C(CC(=O)c1cccc([N+](=O)[O-])c1)C(=O)Nc1ccccc1 ?
Solution: inactive

Exercise: Could you check what this test reported for CC(C)(C)OC(=O)N/N=C(/N)Cc1ccc(Cl)cc1 ?
Solution: inactive

Exercise: Could you check what this test reported for COC(=O)C1=C(O)CCCC(C2CCCCC(=O)C2C(=O)OC)=C1 (stereo unspecified) ?
Solution: inactive

Exercise: Could you check what this test reported for NC(=O)C12C3C4C1C1C2C3C41C(N)=O (stereo unspecified) ?
Solution: inactive

Exercise: Could you check what this test reported for CC12CCC3c4ccc(O)cc4CCC3C1C/C(=N\O)C2O (stereo unspecified) ?
Solution: inactive

Exercise: Could you check what this test reported for COC(=O)CCC(NC(=S)N/N=C(\C)c1ccco1)C(=O)OC (stereo unspecified) ?
Solution: inactive

Exercise: Could you check what this test reported for CN(C)CC[N+]1=Nc2cccc3cccc(c23)N1 ?
Solution: inactive

Exercise: Could you check what this test reported for O=C1c2ccccc2-c2nc(-c3cccs3)cc3c2c1nc1ccccc13 ?
Solution: inactive

Exercise: Could you check what this test reported for [N-]=[N+]=NCC(O)Cn1cnc2c(NC(=O)c3ccccc3)ncnc21 (stereo unspecified) ?
Solution: inactive

Exercise: Could you check what this test reported for COc1nc(O)nc2c1C(c1ccc([N+](=O)[O-])cc1)c1c(OC)nc(O)nc1O2 ?
Solution: inactive

Exercise: Could you check what this test reported for CCCCNS(=O)(=O)c1ccc(-c2ccc3c(c2)-c2ccc(S(=O)(=O)NCCCC)cc2S3(=O)=O)cc1 ?
Solution: inactive

Exercise: Could you check what this test reported for O=C1/C(=C/c2ccccc2)CN(C(=O)OCC(Cl)(Cl)Cl)C/C1=C\c1ccccc1 ?
Solution: inactive

Exercise: Could you check what this test reported for C[Si](C)(C)/C(Br)=C\CCN1C(=O)CCC1=O ?
Solution: inactive

Exercise: Could you check what this test reported for COC(=O)C1=COc2c(n(C)c3ccccc23)-c2ccccc21 ?
Solution: inactive

Exercise: Could you check what this test reported for COc1ccc2c(O)c(S(=O)(=O)c3ccc(C)cc3)c(=O)oc2c1OC ?
Solution: inactive

Exercise: Could you check what this test reported for COc1ccc2c(c1)[n+]([O-])c(-c1ccc(OC)c(OC)c1)c(N)[n+]2[O-] ?
Solution: inactive

Exercise: Could you check what this test reported for Clc1ccccc1C1=NN(c2ccccc2)C2c3cc(Br)ccc3OCC12 (stereo unspecified) ?
Solution: inactive

Exercise: Could you check what this test reported for Cc1nc2c(=S)n(C)ncc2[nH]1 ?
Solution: inactive

Exercise: Could you check what this test reported for Cc1[nH]c2ccccc2c1C1Cc2ccccc2N1C(=O)/C=C/C=C/c1ccccc1 (stereo unspecified) ?
Solution: inactive

Exercise: Could you check what this test reported for NC(=O)CN1CC(C2=C(O)CN(CC(N)=O)C2=O)=CC1=O ?
Solution: inactive

Exercise: Could you check what this test reported for COC1(OC)CC(CO)(CNc2nc(N)nc(Cl)c2/C=N\O)C1 ?
Solution: inactive

Exercise: Could you check what this test reported for COc1ccc(N2C(=O)/C(=C\c3cccc(Oc4ccccc4)c3)S(=O)(=O)C2c2ccccc2)cc1 (stereo unspecified) ?
Solution: inactive

Exercise: Could you check what this test reported for C[N+](C)(C)CCN[N+]1(C)CCCc2ccccc21 (stereo unspecified) ?
Solution: inactive

Exercise: Could you check what this test reported for N/C1=C/C(=O)NC(=O)c2c(c3ccccc3oc2=O)C1 ?
Solution: inactive

Exercise: Could you check what this test reported for CCCCCCCCCCCCCC(=O)O[C@H]1CC[C@H](NC(=O)[C@H](OC)[C@H](O)[C@@H](O)[C@H](O)/C=C/C(C)C)C(=O)N(C)C1 [BENGAMIDE B] ?
Solution: inactive

Exercise: Could you check what this test reported for CC(C)CCCCCCCCCCCCC(=O)NCC(=O)NC1C(C)OC(Nc2[nH]cnc3ncnc2-3)C(O)C1O (stereo unspecified) ?
Solution: active

Exercise: Could you check what this test reported for N#C/C(=C\c1cn(Cc2ccccc2)c2ccccc12)c1nn(-c2ccccc2)c(N)c1C#N ?
Solution: inactive

Exercise: Could you check what this test reported for O=C1/C(=C/c2cccc([N+](=O)[O-])c2)N=C(c2ccccc2)N1c1nc2c(Cl)cc(Cl)cc2s1 ?
Solution: inactive

Exercise: Could you check what this test reported for Cn1c(=S)c2nc(SCc3cccnc3)[nH]c2n(C)c1=O ?
Solution: inactive

Exercise: Could you check what this test reported for C[N+](C)(C)CCOC(=O)/C=C/c1c[nH]cn1 ?
Solution: inactive

Exercise: Could you check what this test reported for O=C(CC(C(=O)c1ccoc1)c1ccco1)c1ccco1 (stereo unspecified) ?
Solution: inactive
